biological target: CtBP1/BARS (Rattus norvegicus, UniProt Q9Z2F5); assay: ITC; also tryptophan fluorescence quenching (Kd […]); assay type: binding; parameters: His-CtBP1/BARS wt, full-length (CtBP1-S/BARS)
assayMetric: pKd
# pKd is unitless: minus log10 of the molar concentration; print number only

Inquiry: I would be grateful if you could share the reported pKd for O=C(Nc1ccc([N+](=O)[O-])cc1)Nc1ccc(S(=O)(=O)Nc2ccc(Cl)c(Cl)c2)cc1 [Comp.11] .
Reply text: 6.18
